Catalogue of compounds with associated cytotoxicity at 70.5 h
Experiment: Human HepG2 cell viability assay in 384 well format
Assay type: toxicity, cell-based
Parameters: dose 125 nL, time 70.5 hour; concentration not given beside the values
Settings: HepG2 cells, read-out: Inhibition
Reply numerically in %, unit not repeated.

# compound, displayUnit, numericValue
data = [
    ("CCc1[nH]c2c(CNc3cnccn3)cc(F)cc2c1C", "%", -2.66),
    ("Cc1noc2ncc(C(=O)N3CCCC3c3ccsc3)cc12 (stereo not given)", "%", -1.73),
    ("Cc1nn(CCO)cc1CN1CCC(C(C)N2CCCC2)CC1 (stereo not given)", "%", -3.99),
    ("CN(C)C(=O)N1CCN(Cc2cnn(C)c2)CC2(CNC(=O)C2)C1 (stereo not given)", "%", -7.42),
    ("Cc1cc(C)n(CCCNC(=O)NCc2c(C)cc(C)[nH]c2=O)n1", "%", 2.42),
]

The compound CC(C)N1C(=O)CN(CCOCCO)CC1(C)C showed cytotoxicity at 70.5 h equal to -1.37

The compound COc1cccc(CN2CCCCCC2c2cccc(F)c2)c1O (stereo not given) showed cytotoxicity at 70.5 h equal to -1.29

The compound O=C(NCCNc1cnccn1)c1scnc1Cl showed cytotoxicity at 70.5 h equal to -8.29

The compound CCC(CC)c1cc(C(=O)N2CCN(C(C#N)C(C)C)CC2)on1 (stereo not given) showed cytotoxicity at 70.5 h equal to -6.08

The compound CN(Cc1ncc(-c2ccccc2)o1)CC1CCCN1c1cccnn1 (stereo not given) showed cytotoxicity at 70.5 h equal to -10.2

The compound Cc1nc(C)n(C2CCCN(C(=O)c3ccccc3C)C2)n1 (stereo not given) showed cytotoxicity at 70.5 h equal to -7.9

The compound COc1cc(F)c(NCc2nc3ccccc3n2C)cc1OC showed cytotoxicity at 70.5 h equal to -15.9

The compound Cc1nc(C(=O)N2CC(C)Sc3ccccc32)cs1 (stereo not given) showed cytotoxicity at 70.5 h equal to -7.31

The compound COc1ccccc1CC1CCN(C(=O)CCN2CCOC2=O)CC1 showed cytotoxicity at 70.5 h equal to 2.48
